subject.of.test: human mesothelin (MSLN) (human) (UniProt Q13421)
protocol.description: BLI (Octet), bsAb in 1+1 Fab-scFv-Fc format
Listing of recorded pKd by entry.
As a rule, pKd stands for the negative log10 of the concentration, concentration in M.

| binder | pKd |
| --- | --- |
| XENP32565 (bispecific antibody, part only; not given: anti-CD3 scFv-Fc arm, constant regions, V domains shown, not shown: another chain or arm of the molecule; a dimerising Fc or GST; small tags and cut ends) VH: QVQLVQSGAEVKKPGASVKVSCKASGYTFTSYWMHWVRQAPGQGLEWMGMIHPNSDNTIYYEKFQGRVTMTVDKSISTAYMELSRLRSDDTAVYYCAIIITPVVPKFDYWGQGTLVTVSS VL: DIVMTQSPDSLAVSLGERATINCKASHDVGTSVAWYQQKPGQSPKLLIYWASTRETGVPDRFTGSGSGTDFTLTISSLQAEDVAVYFCQQYSSYPLTFGAGTKLEIK | 9.54 |
| XENP32560 (bispecific antibody, part only; not given: anti-CD3 scFv-Fc arm, constant regions, V domains shown, not shown: another chain or arm of the molecule; a dimerising Fc or GST; small tags and cut ends) VH: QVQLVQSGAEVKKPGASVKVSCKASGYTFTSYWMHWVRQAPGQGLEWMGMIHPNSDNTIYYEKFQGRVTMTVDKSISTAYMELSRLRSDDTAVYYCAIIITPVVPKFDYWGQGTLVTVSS VL: DIVMTQSPDSLAVSLGERATINCKASQDVGTSVAWYQQKPGQSPKLLIYWASTRHTGVPDRFTGSGSGTDFTLTISSLQAEDVAVYFCQQYSSYPLTFGAGTKLEIK | 9.20 |
| XENP32559 (bispecific antibody, part only; not given: anti-CD3 scFv-Fc arm, constant regions, V domains shown, not shown: another chain or arm of the molecule; a dimerising Fc or GST; small tags and cut ends) VH: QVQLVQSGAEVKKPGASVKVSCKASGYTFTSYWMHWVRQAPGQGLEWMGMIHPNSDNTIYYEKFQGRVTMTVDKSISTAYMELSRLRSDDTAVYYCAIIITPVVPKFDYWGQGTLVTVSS VL: DIVMTQSPDSLAVSLGERATINCKSSHDVGTSVAWYQQKPGQSPKLLIYWASTRHTGVPDRFTGSGSGTDFTLTISSLQAEDVAVYFCQQYSSYPLTFGAGTKLEIK | 9.55 |
| XENP32554 (bispecific antibody, part only; not given: anti-CD3 scFv-Fc arm, constant regions, V domains shown, not shown: another chain or arm of the molecule; a dimerising Fc or GST) VH: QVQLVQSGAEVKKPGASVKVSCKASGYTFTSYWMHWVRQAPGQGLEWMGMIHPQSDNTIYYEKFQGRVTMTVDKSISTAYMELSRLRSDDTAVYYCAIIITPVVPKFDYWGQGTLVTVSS VL: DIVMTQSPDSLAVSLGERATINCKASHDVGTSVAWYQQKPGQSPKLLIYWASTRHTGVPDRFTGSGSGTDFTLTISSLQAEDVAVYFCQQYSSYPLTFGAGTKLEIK | 9.32 |

Please look at the following binder next.
stdin: Record request: pKd value, item XENP32558 (bispecific antibody, part only; not given: anti-CD3 scFv-Fc arm, constant regions, V domains shown, not shown: another chain or arm of the molecule; a dimerising Fc or GST; small tags and cut ends) VH: QVQLVQSGAEVKKPGASVKVSCKASGYTFTSYWMHWVRQAPGQGLEWMGMIHPNSDNTIYYEKFQGRVTMTVDKSISTAYMELSRLRSDDTAVYYCAIIITPVVPRFDYWGQGTLVTVSS VL: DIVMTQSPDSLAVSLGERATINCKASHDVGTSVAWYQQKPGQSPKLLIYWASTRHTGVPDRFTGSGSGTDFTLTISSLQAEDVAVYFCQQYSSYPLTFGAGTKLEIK
stdout: 9.10
